Measured melting point values are reported for all entries that follow.

Example compounds with recorded melting point:
[[record]]
compound = "COC12CC(C)(C)C(O1)C(OC(=O)c1ccc([N+](=O)[O-])cc1)C=C2C (stereo not drawn)"
test_result = "140 to 141 °C"

[[record]]
compound = "Cc1oc(-c2ccccc2)nc1CCc1ccc(COc2ccccc2CC(=O)O)cc1"
test_result = "130 to 131 °C"


Turning to the following compound.
# melting point lookup, item CCOC(=O)c1sc2nc(SCCCN3CCN(c4ccc5ccccc5n4)CC3)[nH]c(=O)c2c1C
200 to 201 °C

###

readout.type: melting point

Example molecules with recorded melting point:
[[record]]
molecule = "O=C(O)c1ccc(Oc2ccc3c(c2)CCN(C2CCN(C4CCC4)CC2)C3=O)cc1"
readout_type = "melting point"
test_result = "255 to 256 °C"

[[record]]
molecule = "COCCNC(=O)c1c(O)c2ccccc2n(C)c1=N"
readout_type = "melting point"
test_result = "208 to 210 °C"

[[record]]
molecule = "Nc1ccc(NC(=O)C=C2CC(C(=O)OCc3ccccc3)Nc3cc(Cl)cc(Cl)c32)cc1 (racemic)"
readout_type = "melting point"
test_result = "80 °C"

[[record]]
molecule = "CC(=O)OC1CSC(Oc2ccc(-c3cccnc3C)nc2)C(OC(C)=O)C1OC(C)=O (centres undefined)"
readout_type = "melting point"
test_result = "198 to 200 °C"

[[record]]
molecule = "O=C(c1ccccc1)N1CCC(CO)CC1"
readout_type = "melting point"
test_result = "83 to 85 °C"

[[record]]
molecule = "O=C1C2CSCC1CN(Cc1ccccc1)C2"
readout_type = "melting point"
test_result = "91 to 92 °C"

[[record]]
molecule = "Cc1cc(NC(=O)C(C)(O)COc2ccc(CC#N)cc2)ccc1[N+](=O)[O-] (centres undefined)"
readout_type = "melting point"
test_result = "143 to 145 °C"

[[record]]
molecule = "CC(C)c1cccc(C(C)C)c1NC(=O)Nc1ccc(Oc2ccc3nc(COc4ccc(CC5SC(=O)NC5=O)cc4)n(C)c3c2)cc1 (centres undefined)"
readout_type = "melting point"
test_result = "222 to 225 °C"

[[record]]
molecule = "CC(C)(C)c1ncc([C@H]2[C@H](C(=O)O)C2(C)C)cn1 (relative stereo)"
readout_type = "melting point"
test_result = "168 to 169 °C"

[[record]]
molecule = "CC1CCN(c2cc(-c3ncccn3)nc(Cl)c2-c2c(F)cccc2Cl)CC1"
readout_type = "melting point"
test_result = "129 °C"


# melting point lookup, item CCOc1nc2ccccc2nc1N(CC)C(=O)N1CCN(c2cc(OC)cc(OC)c2)CC1
144 to 146 °C

# melting point lookup, item COc1cccc(OC)c1-c1nc2c(N[C@H]3[C@@H](C(N)=O)[C@@H]4C=C[C@H]3C4)c(Br)cnc2[nH]1
194 to 197 °C

# melting point lookup, item Fc1ccc2c(c1)C(OCc1c(F)cccc1F)C(Cn1ccnc1)S2 (centres undefined)
167 to 168 °C

# melting point lookup, item CC(C)OC(=O)Cc1ccc2c(c1)C(=O)c1sccc1CO2
92 to 94 °C

# melting point lookup, item COCCN(c1cccc2cc(C(=O)NCCSC(c3ccccc3)(c3ccccc3)c3ccccc3)[nH]c12)S(=O)(=O)c1cccs1
65 to 66 °C

# melting point lookup, item CC(C)c1ccnc(NC(=S)NCCC2=CCCCC2)c1
105 to 106 °C

# melting point lookup, item CCCn1c(=O)c2c(N)n(C(=O)OC)nc2c2ccccc21
180 to 184 °C

# melting point lookup, item N#Cc1ccccc1Cc1c(-c2ccc(OC(F)F)c(OC3CC3)c2)[nH]c2cn[nH]c(=O)c12
> 300 °C

# melting point lookup, item O=C(NCc1ccccc1)Oc1ccc2c(ccn2Cc2ccncc2)c1
112 to 114 °C

# melting point lookup, item CS(=O)(=O)c1ccc(Oc2cc(OC3CCOCC3)c3[nH]c(C4=NCC(CCO)S4)cc3c2)nc1 (centres undefined)
165 to 166 °C

# melting point lookup, item Cc1nc2cccc(OC3CCCCC3)c2c(N)c1C(=O)O
220 to 222 °C

# melting point lookup, item O=C(O)c1ccc(NC(=O)[C@H](CO)NS(=O)(=O)c2ccc(Cl)cc2)cc1
231 to 234 °C

# melting point lookup, item COc1ccc(CSC2CNC(=O)C2)cc1 (centres undefined)
95 to 96 °C

# melting point lookup, item COc1cc2c(cc1Cl)CCOC2c1ccc([N+](=O)[O-])cc1 (centres undefined)
150 to 153 °C
